experimentalTarget: T1, human VISTA on the surface of cells (human, UniProt Q9H7M9 33-295)
T1 sequence: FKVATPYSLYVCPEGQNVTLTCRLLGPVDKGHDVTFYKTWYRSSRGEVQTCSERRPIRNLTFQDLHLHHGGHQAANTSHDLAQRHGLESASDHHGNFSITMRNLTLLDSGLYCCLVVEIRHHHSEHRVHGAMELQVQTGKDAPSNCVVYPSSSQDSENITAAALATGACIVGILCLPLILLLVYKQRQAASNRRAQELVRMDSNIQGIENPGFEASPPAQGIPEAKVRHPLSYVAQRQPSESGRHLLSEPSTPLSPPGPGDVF
assay: cell-based or functional assay
reportedProperty: IC50, CPM (proliferation), SEB assay

Q: State, in one line, measured IC50, CPM (proliferation), SEB assay of VSTB95 (antibody, human IgG1, V domains shown) VH: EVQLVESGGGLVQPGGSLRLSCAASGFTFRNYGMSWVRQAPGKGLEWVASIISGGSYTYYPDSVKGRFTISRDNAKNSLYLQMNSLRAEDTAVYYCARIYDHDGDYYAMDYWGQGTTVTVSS VL: DIVMTQSPLSLPVTPGEPASISCRSSQSIVHSNGNTYLEWYLQKPGQSPQLLIYKVSNRFSGVPDRFSGSGSGTDFTLKISRVEAEDVGVYYCFQGSHVPWTFGQGTKLEIK
A: -1.12 log10 of antibody concentration
